Target: T1, c-erbB-2 ECD with a Ser-Gly-His6 C-terminal fusion (UniProt P04626 23-652)
T1 construct: extracellular domain; Expressed from CHO cells, IMAC purified; coupled to a CM5 chip, coated on plates, or biotinylated with NHS-LC-biotin; also called c-erbB-2 extracellular domain; biotinylated c-erbB-2 ECD
Test: SPR BIAcore
readout-label: pKd
Keep it numeric: pKd is minus log10 of the concentration in mol/L.

Using the record for C6ML3-22 (scFv) scFv: QVQLLQSGAELKKPGESLKISCKGSGYSFTSYWIAWVRQMPGKGLEYMGLIYPGDSDTKYSPSFQGQVTISVDKSVSTAYLQWSSLKPSDSAVYFCARHDVGYCSSSNCAKWPEYFQHWGQGTLVTVSSGGGGSGGGGSGGGGSQSVLTQPPSVSAAPGQKVTISCSGSSSNIGNNYVSWYQQLPGTAPKLLIYGHTNRPAGVPDRFSGSKSGTSASLAISGFRSEDEADYYCAAWDASLSGWVFGGGTKLTVLG , state its measured pKd.
8.08

Using the record for C6ML3-7 (scFv) scFv: QVQLLQSGAELKKPGESLKISCKGSGYSFTSYWIAWVRQMPGKGLEYMGLIYPGDSDTKYSPSFQGQVTISVDKSVSTAYLQWSSLKPSDSAVYFCARHDVGYCSSSNCAKWPEYFQHWGQGTLVTVSSGGGGSGGGGSGGGGSQSVLTQPPSVSAAPGQKVTISCSGSSSNIGNNYVSWYQQLPGTAPKLLIYGHTNRPAGVPDRFSGSKSGTSASLAISGFRSEDEADYYCAAWDYAVSGWVFGGGTKLTVLG , state its measured pKd.
8.59

Using the record for C6ML3-24 (scFv) scFv: QVQLLQSGAELKKPGESLKISCKGSGYSFTSYWIAWVRQMPGKGLEYMGLIYPGDSDTKYSPSFQGQVTISVDKSVSTAYLQWSSLKPSDSAVYFCARHDVGYCSSSNCAKWPEYFQHWGQGTLVTVSSGGGGSGGGGSGGGGSQSVLTQPPSVSAAPGQKVTISCSGSSSNIGNNYVSWYQQLPGTAPKLLIYGHTNRPAGVPDRFSGSKSGTSASLAISGFRSEDEADYYCAAWDEQIFGWVFGGGTKLTVLG , state its measured pKd.
7.91
